Form field: T/C (one value per entry).
# Test system: L1210 leukemia ip in BDF1 mice, survival T/C
# assayMethodText: NCI In Vivo Anticancer Drug Screen. Data for tumor model L1210 Leukemia (intraperitoneal) in B6D2F1 (BDF1) mice
# conditionDescription: endpoint: mean survival time; dose: 12.5 mg/kg/injection; schedule: Q01DX009 (ip); vehicle: saline; higher = longer survival
Toxic doses and inconclusive results are not listed.

compound	T/C
O=C1OC(=O)C2C1C13CCCC1=C1CCC34C(=O)OC(=O)C43CC123 (centres undefined)	109 % of control

Q: // lookup T/C for CN(C)CCCN1c2ccccc2CCc2ccccc21
Ans: 93 % of control

Q: // lookup T/C for CSc1nccc(=O)n1C
Ans: 96 % of control

Q: // lookup T/C for Cc1nsc(N)n1
Ans: 108 % of control

---

# Test system: L1210 leukemia ip in BDF1 mice, survival T/C
# assayMethodText: NCI In Vivo Anticancer Drug Screen. Data for tumor model L1210 Leukemia (intraperitoneal) in B6D2F1 (BDF1) mice
# conditionDescription: endpoint: mean survival time; dose: 200.0 mg/kg/injection; schedule: Q01DX001 (ip); vehicle: other; higher = longer survival
# Protocol: The antitumor activity of compounds was measured in mice bearing transplantable tumors. Survival or tumor size were measured and the results are expressed as the measurement made in the treated group (T) divided by the measurement made in the vehicle treated control group (C). The tumor model used in this assay is L1210 Leukemia (intraperitoneal) in B6D2F1 (BDF1) mice
Toxic doses and inconclusive results are not listed.
Form field: T/C (one value per entry).

These recorded examples may help you get a feel for the data.
compound	T/C
O=C(N/N=C/C=C/c1ccccc1)c1ccco1	87 % of control
Cc1ccccc1C(=O)c1ccccc1C	113 % of control
O=C(Cl)CNS(=O)(=O)c1ccccc1	108 % of control
S=c1[nH]c(-c2ccccc2)cs1	100 % of control
CCCCCN(C)N=Nc1ccccc1C(N)=O	112 % of control
CCCC(Cc1cccs1)C(=O)O (stereo not given)	97 % of control
S=c1nc[nH]c2c1ncn2/N=C/c1ccccc1	90 % of control
CC(=O)Nc1cc(NC(C)=O)c2nc(CN(C)c3ccc(C(=O)O)cc3)cnc2n1	98 % of control

Q: // lookup T/C for O=[N+]([O-])c1ccccc1N=Cc1ccccc1O.[Co]
Ans: 104 % of control

Q: // lookup T/C for CCOC(=O)C(C)(c1c(C)n(C)c2ccccc12)c1c(C)n(C)c2ccccc12
Ans: 91 % of control

---

# System: L1210 leukemia ip in BDF1 mice, survival T/C
# assayMethodText: NCI In Vivo Anticancer Drug Screen. Data for tumor model L1210 Leukemia (intraperitoneal) in B6D2F1 (BDF1) mice
# conditionDescription: endpoint: mean survival time; dose: 25.0 mg/kg/injection; schedule: Q01DX009 (ip); vehicle: saline; higher = longer survival
Toxic doses and inconclusive results are not listed.
Form field: T/C (one value per entry).

compound	T/C
CN(C)CCCN1c2ccccc2CCc2ccccc21	104 % of control
CC(C)C([NH-])=O.CC(C)C([NH-])=O.[Cl][Pt+2][Cl]	102 % of control
CN1C2CCC1CN(Cc1ccccc1)C2	101 % of control
CN1CCC2=C(C1)C(c1ccccc1)c1ccccc12 (centres undefined)	90 % of control
COc1cc2c(cc1O)CN(CCC(C)=O)CC2O (centres undefined)	101 % of control
CCCC(Cc1ccccc1)N1CCCC1 (centres undefined)	103 % of control
CCCCCC[Se]CCCCCC	96 % of control
CC(C)=CCC(=O)OC(Cc1ccccc1)(c1ccccc1)C(C)CN(C)C (centres undefined)	101 % of control
COc1ccc2c(c1)N(CCC1CCCCN1C)c1ccccc1S2 (centres undefined)	117 % of control
C=CC[n+]1ccccc1Cc1ccccc1	103 % of control

Could you now look at the following compound, please?
Q: // lookup T/C for CC1CN(c2ccc([N+](=O)[O-])cc2)C(C)CN1N=O (centres undefined)
Ans: 106 % of control
